Data provenance is PubChem BioAssay (NCI).

Kindly supply the reported growth values for the records listed here.
tested on: NCI-H460 lung; assay: NCI-60 one-dose screen, 48 h (100 = growth as untreated, 0 = no growth, -100 = all killed); conditions: 10 µM
This is part of a sample that, as a whole, favours compounds with a hit. Of some 83,000 tested, about 20% had one in any assay.
Numbers only, in %.

Please review the entries below; each comes with its answer.
| SMILES STR | growth, % |
| --- | --- |
| Cc1nn(-c2ccccc2)c2ncn(CC(=O)N/N=C/c3c[nH]c4ccccc34)c(=O)c12 | 92.9 |
| COc1cc2c3c(n(CCCN4CCOCC4)c(=O)c2cc1OC)-c1nc2c(cc1C3=O)OCO2 | -15.4 |
| COc1cccc(-c2ccnc(/N=C(\N)Nc3ccc(S(=O)(=O)Nc4nc(C)cc(C)n4)cc3)n2)c1 | 106 |
| CC(=O)NNc1ccc2nnc(-c3ccc(Br)cc3)n2n1 | 106 |
| CC(=O)c1ccc(Nc2nc(SC(C)C)nc(-c3ccccc3)c2C#N)cc1 | 20.2 |

Okay, here is my list. What is growth for each of these?
1. CN1CCN(c2ccc(Nc3nc(N4CCN(S(=O)(=O)c5ccc(F)cc5)CC4)c4sccc4n3)cc2)CC1
2. COc1cc(/C=C/C(=O)c2cc(OC)c(OC)c(OC)c2)ccc1Oc1nc(Nc2ccc(F)cc2)nc(N(C)C)n1

[-73, -23]

====

system: SK-MEL-2 melanoma; assay: NCI-60 one-dose screen, 48 h (100 = growth as untreated, 0 = no growth, -100 = all killed); conditions: 10 µM
Compounds without any hit were thinned out: in the full panel of roughly 83,000, 20% have a hit.
I'd be grateful if you could share measured growth for these entries.
Give bare numbers, in %.

Use the examples below as a reference point.
| MOLECULE | growth [%] |
| --- | --- |
| CN(C(=O)c1ccc(C(F)(F)F)cc1C(F)(F)F)c1sc2c(c1C#N)CCC(=O)C2 | 96.8 |
| O=C(Cc1ccc2c(c1)CN(C1CCC(=O)NC1=O)C2=O)NCc1cccc2ccccc12 (stereo not drawn) | -45.7 |

For `C=CC(=O)Nc1nc(-c2cccc(NS(=O)(=O)c3cccc4c(N(C)C)cccc34)c2)cs1` the molecule record lists growth as -62.7

====

system: CAKI-1 renal; experiment: NCI-60 one-dose screen, 48 h; conditions: 10 µM
Compounds without any hit were thinned out: in the full panel of roughly 83,000, 20% have a hit. Active and inactive are the calls of the source. The calls were made as follows: active = growth percent below 10; inactive = the rest.
Your response should consist of one outcome taken from label 1 (active), label 0 (inactive)

Example cases with answers are listed next.
| COMPOUND | ANSWER LABEL |
| --- | --- |
| O=C1Nc2cc(Cl)ccc2/C1=C/c1ccc(OCc2ccc(Br)cc2F)cc1 | label 1 |
| CCOP(=O)(OCC)O[C@H]1CC[C@]2(C)[C@H]3CC[C@@H]4[C@@H]([C@](C)(O)CCC=C(C)C)CC[C@@]4(C)[C@]3(C)CC[C@H]2C1(C)C | label 0 |
| CC(=C(c1ccc(OCCN2CCCCC2)cc1)c1ccc(OCCN2CCCCC2)cc1)c1ccccc1 | label 0 |

Tell me the assay call for `O=C1Nc2ccc(Cl)cc2/C1=C/c1ccc(OCc2ccc(Br)cc2F)cc1` please.
label 0

Record lookup: outcome of this test for `O=c1[nH][nH]c(Nc2ccccc2)c1N=Nc1ccc(F)cc1` ?
label 0

Would you mind telling me which call this test gave O=C(c1ccc(O)cc1)C1[C@H](c2ccc(Br)cc2)[C@@H](c2ccccc2)NC12C(=O)Nc1ccc(Br)cc12 (some centres undefined) ?
label 1

Record lookup: outcome of this test for `CC(=O)Nc1ccc(-n2cnc3cc(-c4ccc(O)cc4)ccc32)cc1F` ?
label 0

Dear all, I need the recorded test outcome for CCOC(=O)C1=C(N)N(c2ccccc2)C2=C(C(=O)CC(C)(C)C2)C1c1ccc(Cl)cc1 (centres undefined) , thank you.
label 0

What did this assay record as the result for COc1ccccc1[C@H]1C(C(=O)c2ccc(Cl)cc2)C2(N[C@@H]1c1ccccc1)C(=O)Nc1ccc(Cl)cc12 (some centres undefined) ?
label 1

====

Please respond with reported growth for every item in the list.
tested on: SN12C renal; assay: NCI-60 one-dose screen, 48 h (100 = growth as untreated, 0 = no growth, -100 = all killed); details: 10 µM
This is part of a sample that, as a whole, favours compounds with a hit. Of some 83,000 tested, about 20% had one in any assay.
Give bare numbers, in %.

| SMILES STR | RESULT TYPE | READING UNIT | MEASURED VALUE |
| --- | --- | --- | --- |
| O=C(/C=C/Nc1ccccc1)c1ccc2c(c1)Nc1ccccc1S2 | growth | % | 69.2 |
| O=C(Nc1ccncc1)c1ccc(-n2c(=O)[nH]c3ccccc3c2=O)cc1 | growth | % | 90.5 |
| CC(=O)Nc1ccc(-c2cn(-c3cccc(C(=O)Nc4cccc(OC(F)(F)F)c4)c3)nn2)cn1 | growth | % | 114 |
| COC[C@@H](CC(C)C)N=C1NC(=O)/C(=C/c2ccc3ncoc3c2)N1 | growth | % | 15.1 |
| Cc1ccc(/C=C(\C#N)n2nnc3c(F)cccc32)cc1 | growth | % | 4.19 |

Note: attention shifts to another entry.
For record `Cc1cccc2cc(-c3cc(-c4ccccc4)nc(=S)[nH]3)c(Cl)nc12` the listed growth is 89.2

====

test system: LOX IMVI melanoma; test: NCI-60 one-dose screen, 48 h (100 = growth as untreated, 0 = no growth, -100 = all killed); settings: 10 µM
The panel holds about 83,000 compounds, 20% with a hit somewhere; the sample as a whole holds those more often.
Rule: growth under 10% gives no (0), otherwise yes (1).

| SMILES STR | ANSWER LABEL |
| --- | --- |
| Cc1ccc(-c2nc3ccc(C(=O)N=Nc4c(O)[nH]c5ccc(Br)cc45)cc3[nH]2)cc1 | no (0) |
| Cc1noc2c(Cc3ccc([N+](=O)[O-])cc3)nn(CC(=O)N/N=C/c3ccc(Cl)cc3)c(=O)c12 | yes (1) |
| O=C(CNc1nc(-c2ccccc2)cs1)Nc1ccc(Br)cc1 | no (0) |
| CN(C(=O)c1ccc(C(C)(C)C)cc1)c1sc2c(c1C#N)CCC(=O)C2 | no (0) |
| O=C(Nc1cccc(C(F)(F)F)c1)c1cncc(C#Cc2cnc3ccc(N4CCOCC4)nn23)c1 | no (0) |

growth >= 10% for `Nc1nc(-c2ccccc2)cs1` ?
yes (1)

Please check the record `O=C(CSc1nnc(-c2c[nH]c3ccccc23)n1-c1ccccc1)c1ccccc1` and state if its growth is at or above 10%.
yes (1)

Dear colleague, could you confirm whether `CCOC(=O)CNC(=O)CN(Cc1ccccc1)C(=O)[C@@]1(C)CCC[C@]2(C)[C@H]3CC4C(C(C)C)=C[C@]3(CC[C@H]21)[C@@H]1C(=O)CCC(=O)[C@H]41` has growth at or above 10%?
no (0)

Could you verify whether the entry `O=C(Nc1ccc(F)c(Cl)c1)c1cc(-c2ccc(F)cc2F)ccc1O` shows growth of no less than 10%?
no (0)

Is it the case that `Cc1ccc(NC(=O)c2ccc(-n3c(=O)[nH]c4ccccc4c3=O)cc2)cc1` has growth reaching or exceeding 10%?
yes (1)

Would you say `C=C(c1ccc(OC)c(N)c1)c1cc(C)nc2ccccc12` shows growth at minimum 10%?
yes (1)

Could you please find out whether `O=C(Cn1nc(-c2ccccc2)ccc1=O)NN1C(=O)c2ccccc2C1=O` has growth that meets 10% or exceeds it?
yes (1)

====

system: OVCAR-8 ovarian; assay: NCI-60 one-dose screen, 48 h; details: 10 µM
About 83,000 compounds went through this panel and 20% of them were active in at least one assay; those are over-represented in the sample as a whole. The source made the active and inactive calls. The calls were made as follows: active = growth percent below 10; inactive = the rest.
Lab note: assign the record to one of yes (active), no (inactive)

| SMILES STR | TGT | ANSWER LABEL |
| --- | --- | --- |
| COc1ccc(CN2[C@H](C(=O)NCc3ccc(C(=O)NO)cc3)Cc3c([nH]c4ccccc34)[C@H]2C2CC2)cc1 | OVCAR-8 ovarian | no |
| O=C(/C=C/Nc1ccc(F)cc1F)c1ccc2c(c1)Nc1ccccc1S2 | OVCAR-8 ovarian | no |
| Cc1ccc(F)cc1N/C=c1\s/c(=C(\C#N)C(=O)Nc2ccccc2)n(-c2ccccc2)c1=O | OVCAR-8 ovarian | no |
| CCOc1ccc(/C=N/NC(=O)Cn2nc(Cc3ccccc3)c3onc(C)c3c2=O)cc1 | OVCAR-8 ovarian | yes |
| Nc1nc(Nc2ccc(Cl)cc2)n(Cc2cccc(Br)c2)n1 | OVCAR-8 ovarian | yes |
| Cc1ccc(NC(=O)c2ccc(-n3c(=O)[nH]c4ccccc4c3=O)cc2)cc1 | OVCAR-8 ovarian | no |
| O=C1Nc2cc(Cl)ccc2/C1=C/c1cccc(OCc2ccc(Br)cc2F)c1 | OVCAR-8 ovarian | yes |
| Cc1ccc(C(=O)Nc2ccc(-n3c(C)nc4c(cnn4-c4ccccc4)c3=O)cc2)cc1 | OVCAR-8 ovarian | no |

Write down the call the test reported for this molecule. Item: `CN(C)CCNC(=O)OCCCCOc1cc(O)c2c(=O)cc(-c3ccccc3)oc2c1`
yes

Entry `CCCS(=O)(=O)c1oc(-c2ccc(F)cc2)nc1S(=O)(=O)c1ccc(F)cc1` : call = ?
yes

I'd appreciate the recorded outcome for `O=C1Nc2ccc(Cl)cc2/C1=C/c1cccc(OCc2ccccc2)c1` from this test.
no
